TESTED ON: P. falciparum apicoplast DNA polymerase (Pf-apPOL) (Plasmodium falciparum)
EXPERIMENTAL DETAILS: Fluorescence-based high-throughput DNA polymerase assay (molecular beacon), primary screen and dose-response
Format: biochemical
CONDITION: DRC-1; 90'; conc 20
Task for the reader: assign each of the following compounds its reported % inhibition Apol 90'.
Numbers only, in %.

- COMPOUND: "O=C(O)c1ccc(COc2cc([N+](=O)[O-])cc3cccnc23)cc1"
  % inhibition Apol 90', %: 56.1594
- COMPOUND: "C=CCOc1c(Br)cc(Br)cc1/C=C1\\SC(=N)NC1=O"
  % inhibition Apol 90', %: 38.2187
- COMPOUND: "C=CC1=C(C)c2cc3[nH]c(cc4nc(cc5[nH]c(cc1n2)c(C)c5CCC(=O)O)C(CCC(=O)O)=C4C)c(C)c3C=C"
  % inhibition Apol 90', %: 95.5429

Quick request: % inhibition Apol 90' for each listed item, please.
1. Cc1cccc(C2=N/C(=C\c3ccc([N+](=O)[O-])o3)C(=O)O2)c1
2. O=c1nc(/C=C/c2ccc(Br)cc2)oc2ccccc12
3. O=C1Nc2ccc(I)cc2C1=Cc1cc(Br)c(O)c(Br)c1
4. Cc1ccc(N2NC(=O)/C(=C\c3ccc(O)c([N+](=O)[O-])c3)C2=O)cc1Cl

Response:
1. 66.6869
2. 11.2319
3. 63.6894
4. 55.0808

====

TESTED ON: P. falciparum apicoplast DNA polymerase (Pf-apPOL) (Plasmodium falciparum, UniProt Q8ILY1)
Sequence (Q8ILY1 entry or part of it): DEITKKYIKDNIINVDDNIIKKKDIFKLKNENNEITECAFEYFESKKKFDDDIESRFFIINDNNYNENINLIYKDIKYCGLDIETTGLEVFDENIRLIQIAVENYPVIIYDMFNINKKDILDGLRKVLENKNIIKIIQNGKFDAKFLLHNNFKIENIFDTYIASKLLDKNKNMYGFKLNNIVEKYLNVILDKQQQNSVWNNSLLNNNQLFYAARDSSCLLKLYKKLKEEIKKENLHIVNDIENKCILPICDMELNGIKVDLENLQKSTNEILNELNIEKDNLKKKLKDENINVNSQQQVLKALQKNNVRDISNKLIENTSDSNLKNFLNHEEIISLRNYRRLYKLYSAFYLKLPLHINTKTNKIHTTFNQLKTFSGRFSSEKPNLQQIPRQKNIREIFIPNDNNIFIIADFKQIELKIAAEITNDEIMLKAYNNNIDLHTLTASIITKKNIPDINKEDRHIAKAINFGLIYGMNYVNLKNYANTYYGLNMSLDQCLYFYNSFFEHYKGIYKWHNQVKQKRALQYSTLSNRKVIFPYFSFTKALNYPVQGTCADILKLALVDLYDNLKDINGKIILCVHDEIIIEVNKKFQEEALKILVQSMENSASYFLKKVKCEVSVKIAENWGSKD
EXPERIMENTAL DETAILS: Fluorescence-based high-throughput DNA polymerase assay (molecular beacon), primary screen and dose-response;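 on % inhibition Apol 40': compound concentration given in µM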
Type: biochemical
CONDITION: DRC-2; 40'; conc 80
Exercise: for every item that follows, state its recorded % inhibition Apol 40'.
Give bare numbers, in %.

Use the examples below as a reference point.
- MOLECULE: "Cc1ccc(NC(=O)Cn2ccc3c(=O)[nH]ccc32)c(C)c1 [KU0205125]"
  VALUE UNIT: "%"
  % inhibition Apol 40': 73
- MOLECULE: "C=CCOc1c(Br)cc(Br)cc1/C=C1\\SC(=N)NC1=O [KU0051640]"
  VALUE UNIT: "%"
  % inhibition Apol 40': 75

Batch lookup, % inhibition Apol 40' per entry.
1. O=C(O)c1ccc(COc2cc([N+](=O)[O-])cc3cccnc23)cc1 [KU0058403]
2. CC(C)CCNC(=O)c1cnn2c(O)cc(CSc3ccc(Cl)cc3)nc12 [Molecule 101]
3. Cc1ccc(N2NC(=O)/C(=C\c3ccc(O)c([N+](=O)[O-])c3)C2=O)cc1Cl [KU0058427]
4. COC(=O)c1sc(-c2ccc(C(C)(C)C)cc2)cc1NC(=O)CCC(=O)O [Molecule 87]
5. O=c1nc(/C=C/c2ccc(Br)cc2)oc2ccccc12 [KU0052629]

Response:
74
81
74
72
75

Please supply % inhibition Apol 40' for each of the following items, keeping them in order.
1. C=CC1=C(C)c2cc3[nH]c(cc4nc(cc5[nH]c(cc1n2)c(C)c5CCC(=O)O)C(CCC(=O)O)=C4C)c(C)c3C=C [Molecule 91]
2. O=C1NN(c2ccc(Cl)c(Cl)c2)C(=O)/C1=C/c1ccc(-c2ccc3c(c2)C(=O)OC3)o1 [Molecule 90]
3. Cc1cccc(NC(=O)Cn2ccc3c(=O)[nH]ccc32)c1C [Molecule 11, O=C(Cn1ccc2c1cc[nH]c2=O)Nc1cccc(c1C)C]
4. O=C1Nc2ccc(I)cc2C1=Cc1cc(Br)c(O)c(Br)c1 [Molecule 27]
5. CCOc1nc2cccc(C(=O)OC(C)OC(=O)OC3CCCCC3)c2n1Cc1ccc(-c2ccccc2-c2nnn[nH]2)cc1 (stereo not drawn) [Molecule 94]
6. Cc1cc(C)c2c(c1)C1C=CCC1C(c1ccc(C(=O)O)cc1)N2 (stereo not drawn) [Molecule 102]
7. Cc1ccccc1NC(=O)Cn1ccc2c(=O)[nH]ccc21 [Molecule 50, O=C(Cn1ccc2c1cc[nH]c2=O)Nc1ccc(cc1)C]
8. Cc1cccc(C2=N/C(=C\c3ccc([N+](=O)[O-])o3)C(=O)O2)c1 [KU0058960]

Response:
69
79
66
72
74
75
67
69
